# assayNotes: The drug is tested on Clostridium sp. strain: fecal isolate for biotransformation. The drug concentrations were measured before and after a 12-h incubation by liquid-chromatography-coupled mass spectrometry (LC–MS)
# testParameters: 2 µM
measurementType: Bacterial Biotransformation

CCc1nc(N)nc(N)c1-c1ccc(Cl)cc1: Compound NOT metabolized
Cc1ccc(S(=O)(=O)NC(=O)NN2CCCCCC2)cc1 [TOLAZAMIDE]: Compound metabolized
COc1ccc(/C=C/C(=O)Nc2ccccc2C(=O)O)cc1OC: Compound NOT metabolized
O=C1CN2Cc3c(ccc(Cl)c3Cl)N=C2N1 [ANAGRELIDE]: Compound metabolized

----------
# testParameters: parabacteroides distasonis, 12 h, 2 µM
# Description: The drug is tested on Parabacteroides distasonis strain: ATCC8503 for biotransformation. The drug concentrations were measured before and after a 12-h incubation by liquid-chromatography-coupled mass spectrometry (LC–MS)
measurementType: Bacterial Biotransformation

These solved cases illustrate the format of a correct answer.
CO[C@]12C[C@@H](COC(=O)c3cncc(Br)c3)CN(C)[C@@H]1Cc1cn(C)c3cccc2c13: Compound NOT metabolized
NS(=O)(=O)c1cc2c(cc1Cl)N=C(CSCc1ccccc1)NS2(=O)=O [BENZTHIAZIDE]: Compound NOT metabolized
COc1ccnc(C[S+]([O-])c2nc3ccc(OC(F)F)cc3[nH]2)c1OC (stereo not given): Compound metabolized
COc1cc(C(=O)NCc2ccc(OCCN(C)C)cc2)cc(OC)c1OC [TRIMETHOBENZAMIDE]: Compound NOT metabolized

Now take the following compound into account.
Just so you know, measured Bacterial Biotransformation for CC(C)c1nc(N(C)S(C)(=O)=O)nc(-c2ccc(F)cc2)c1/C=C/[C@@H](O)C[C@@H](O)CC(=O)[O-].CC(C)c1nc(N(C)S(C)(=O)=O)nc(-c2ccc(F)cc2)c1/C=C/[C@@H](O)C[C@@H](O)CC(=O)[O-].[Ca+2] came out at Compound NOT metabolized

----------
# assayNotes: The drug is tested on Odoribacter splanchnicus strain: fecal isolate for biotransformation. The drug concentrations were measured before and after a 12-h incubation by liquid-chromatography-coupled mass spectrometry (LC–MS)
# testParameters: 2 µM
measurementType: Bacterial Biotransformation

These solved cases illustrate the format of a correct answer.
Cc1ccc(-c2nc3ccc(C)cn3c2CC(=O)N(C)C)cc1: Compound NOT metabolized
Clc1ccc(Cn2c(CN3CCCC3)nc3ccccc32)cc1: Compound NOT metabolized
OC(Cn1cncn1)(Cn1cncn1)c1ccc(F)cc1F: Compound metabolized
CN(C)C(=O)C(CCN1CCC(O)(c2ccc(Cl)cc2)CC1)(c1ccccc1)c1ccccc1 [LOPERAMIDE]: Compound metabolized
O=C1NCC2(CCN(CCc3ccccc3)CC2)O1 [FENSPIRIDE]: Compound NOT metabolized
OC(CCN1CCCCC1)(c1ccccc1)C1CC2C=CC1C2 (stereo not given): Compound NOT metabolized
CN1CCc2c(c3ccccc3n2Cc2ccccc2)C1.CN1CCc2c(c3ccccc3n2Cc2ccccc2)C1.O=S(=O)(O)c1cccc2c(S(=O)(=O)O)cccc12: Compound NOT metabolized
CCCc1nc(C(C)(C)O)c(C(=O)OCc2oc(=O)oc2C)n1Cc1ccc(-c2ccccc2-c2nnn[nH]2)cc1: Compound metabolized
COc1ccccc1OCC(O)COC(N)=O (stereo not given): Compound NOT metabolized

Now take the following compound into account.
Just so you know, measured Bacterial Biotransformation for CCC(C)n1ncn(-c2ccc(N3CCN(c4ccc(OCC5COC(Cn6cncn6)(c6ccc(Cl)cc6Cl)O5)cc4)CC3)cc2)c1=O (stereo not given) came out at Compound NOT metabolized
